Data credit: ChEMBL document CHEMBL5724914

details: human gut metagenome, 24 h, 2 µM; further: call rule not given here
Value kind: Bacterial Biotransformation

// solved cases for Bacterial Biotransformation follow
>>> print(df.to_string())
                                   compound           endpoint_result
0                 Nc1nc2ccc(OC(F)(F)F)cc2s1      Compound metabolized
1  CS(=O)(=O)O.O.O.O.O=C1Cc2cc(CCN3CCN(c4nsc5ccccc45)CC3)c(Cl)cc2N1 [ZIPRASIDONE MESYLATE]  Compound NOT metabolized
2           CN(C)CCC=C1c2ccccc2C=Cc2ccccc21      Compound metabolized
3  CCOC(=O)[C@H](CCc1ccccc1)N[C@@H](C)C(=O)N1[C@H](C(=O)O)C[C@H]2CCCC[C@@H]21      Compound metabolized
4     CN1CCc2cccc3c2[C@H]1Cc1ccc(O)c(O)c1-3  Compound NOT metabolized

Endpoint output: Bacterial Biotransformation of CCOC(=O)[C@H](CCc1ccccc1)N[C@H]1CCc2ccccc2N(CC(=O)O)C1=O . Value? Compound metabolized

Endpoint output: Bacterial Biotransformation of Cc1cc2c(cc1S(N)(=O)=O)S(=O)(=O)CCC2 . Value? Compound NOT metabolized

Endpoint output: Bacterial Biotransformation of CC(C)c1nc(CN(C)C(=O)N[C@H](C(=O)N[C@@H](Cc2ccccc2)C[C@H](O)[C@H](Cc2ccccc2)NC(=O)OCc2cncs2)C(C)C)cs1 . Value? Compound metabolized

Endpoint output: Bacterial Biotransformation of OC(CCN1CCCCC1)(c1ccccc1)C1CC2C=CC1C2 (centres undefined) . Value? Compound metabolized

* * *

experiment: The drug is tested on Z-002 corresponding to rabbit gut metagenome with ENA study accession number: PRJEB37062 and ENA sample accession number: ERS12561802 for biotransformation under anaerobic condition. The drug concentrations were measured over 9 timepoints collected between 0 and 24 hours of incubation by liquid-chromatography-coupled mass spectrometry (LC–MS); details: 2 µM
Value kind: Bacterial Biotransformation

// solved cases for Bacterial Biotransformation follow
In [3]: df
Out[3]:
                                   molecule           endpoint_result
0  CC(C)OC(=O)C(C)(C)Oc1ccc(C(=O)c2ccc(Cl)cc2)cc1 [FENOFIBRATE]      Compound metabolized
1  C#C[C@]1(O)CC[C@H]2[C@@H]3CCC4=CC(=O)CC[C@@H]4[C@H]3CC[C@@]21CC      Compound metabolized
2  CCN(CC)C(C)CN1c2ccccc2Sc2ccccc21 (stereo not drawn)      Compound metabolized
3  CC[C@H](C)C(=O)O[C@H]1C[C@@H](C)C=C2C=C[C@H](C)[C@H](CC[C@@H]3C[C@@H](O)CC(=O)O3)[C@H]21  Compound NOT metabolized
4        Cc1ccc(/C(=C\CN2CCCC2)c2ccccn2)cc1  Compound NOT metabolized
5  COC1=CC(=O)C[C@@H](C)[C@]12Oc1c(Cl)c(OC)cc(OC)c1C2=O      Compound metabolized
6  Cc1ccc(S(=O)(=O)NC(=O)NN2CCCCCC2)cc1 [TOLAZAMIDE]      Compound metabolized
7  CCCCc1nc(Cl)c(CO)n1Cc1ccc(-c2ccccc2-c2nn[nH]n2)cc1  Compound NOT metabolized

Endpoint output: Bacterial Biotransformation of CCOc1ccc(NC(C)=O)cc1 . Value? Compound NOT metabolized

Endpoint output: Bacterial Biotransformation of CCOC(=O)[C@H](CCc1ccccc1)N[C@H]1CCc2ccccc2N(CC(=O)O)C1=O . Value? Compound metabolized

Endpoint output: Bacterial Biotransformation of CN1CCN(C(=O)O[C@H]2c3nccnc3C(=O)N2c2ccc(Cl)cn2)CC1 . Value? Compound NOT metabolized

* * *

conditions: human gut metagenome, 24 h, 2 µM
Value kind: Bacterial Biotransformation

// solved cases for Bacterial Biotransformation follow
Compound	Endpoint result
C=CCc1ccccc1OCC(O)CNC(C)C (configuration not stated)	Compound metabolized
CC(C)OC(=O)C(C)(C)Oc1ccc(C(=O)c2ccc(Cl)cc2)cc1 [FENOFIBRATE]	Compound NOT metabolized
CCOC(=O)[C@H](CCc1ccccc1)N[C@@H](C)C(=O)N1[C@H](C(=O)O)C[C@@H]2CCC[C@@H]21	Compound metabolized
CCN(CC)CCNC(=O)c1cc(Cl)c(N)cc1OC [METOCLOPRAMIDE]	Compound NOT metabolized
CCCCc1nc(Cl)c(CO)n1Cc1ccc(-c2ccccc2-c2nn[nH]n2)cc1	Compound metabolized

Endpoint output: Bacterial Biotransformation of OCCN1CCN(CCCN2c3ccccc3Sc3ccc(C(F)(F)F)cc32)CC1 . Value? Compound metabolized

Endpoint output: Bacterial Biotransformation of CO[C@]12C[C@@H](COC(=O)c3cncc(Br)c3)CN(C)[C@@H]1Cc1cn(C)c3cccc2c13 . Value? Compound NOT metabolized

Endpoint output: Bacterial Biotransformation of COc1ccc(CCN(C)CCCC(C#N)(c2ccc(OC)c(OC)c2)C(C)C)cc1OC (configuration not stated) . Value? Compound metabolized

Endpoint output: Bacterial Biotransformation of CN1CC(=O)N2[C@H](c3ccc4c(c3)OCO4)c3[nH]c4ccccc4c3C[C@@H]2C1=O . Value? Compound metabolized

Endpoint output: Bacterial Biotransformation of CNS(=O)(=O)Cc1ccc2[nH]cc(CCN(C)C)c2c1.O=C(O)CCC(=O)O [SUMATRIPTAN SUCCINATE] . Value? Compound metabolized

Endpoint output: Bacterial Biotransformation of CNC(=C[N+](=O)[O-])NCCSCc1ccc(CN(C)C)o1 . Value? Compound metabolized

Endpoint output: Bacterial Biotransformation of O=C1NCC2(CCN(CCc3ccccc3)CC2)O1 [FENSPIRIDE] . Value? Compound NOT metabolized

Endpoint output: Bacterial Biotransformation of CC(C)(C)NC[C@H](O)COc1ccccc1C1CCCC1.CC(C)(C)NC[C@H](O)COc1ccccc1C1CCCC1.O=S(=O)(O)O [PENBUTOLOL SULFATE] . Value? Compound metabolized

Endpoint output: Bacterial Biotransformation of CCC(COC(=O)c1cc(OC)c(OC)c(OC)c1)(c1ccccc1)N(C)C.O=C(O)/C=C\C(=O)O (configuration not stated) . Value? Compound NOT metabolized

Endpoint output: Bacterial Biotransformation of COCCc1ccc(OCC(O)CNC(C)C)cc1.COCCc1ccc(OCC(O)CNC(C)C)cc1.O=C(O)C(O)C(O)C(=O)O (configuration not stated) [METOPROLOL TARTRATE] . Value? Compound metabolized

Endpoint output: Bacterial Biotransformation of COc1ccc2[nH]c([S+]([O-])Cc3ncc(C)c(OC)c3C)nc2c1 (configuration not stated) . Value? Compound metabolized

Endpoint output: Bacterial Biotransformation of CN1C(=O)CC(C)(c2ccccc2)C1=O (configuration not stated) [METHSUXIMIDE] . Value? Compound metabolized

* * *

settings: human gut metagenome, 24 h, 2 µM
Where a SMILES comes first, the peptide text is derived from it. [ ]: non-standard residue; d: D form. pGlu = O=C1CC[C@@H](C(=O)O)N1; Thz = O=C(O)[C@@H]1CSCN1
Value kind: Bacterial Biotransformation

// solved cases for Bacterial Biotransformation follow
>>> print(df.to_string())
                                   compound                   value_kind           endpoint_result
0   Cc1nc(-c2ccc(OCC(C)C)c(C#N)c2)sc1C(=O)O  Bacterial Biotransformation      Compound metabolized
1  CCCCCCOC(=O)/N=C(/N)c1ccc(NCc2nc3cc(C(=O)N(CCC(=O)OCC)c4ccccn4)ccc3n2C)cc1.CS(=O)(=O)O [DABIGATRAN ETEXILATE MESYLATE]  Bacterial Biotransformation  Compound NOT metabolized
2  CN(C)CC(c1ccc(O)cc1)C1(O)CCCCC1.O=C(O)CCC(=O)O (stereo unspecified) [DESVENLAFAXINE SUCCINATE]  Bacterial Biotransformation  Compound NOT metabolized
3  Fc1ccc([C@@H]2CCNC[C@H]2COc2ccc3c(c2)OCO3)cc1  Bacterial Biotransformation  Compound NOT metabolized
4  CCCCc1nc(Cl)c(CO)n1Cc1ccc(-c2ccccc2-c2nn[nH]n2)cc1  Bacterial Biotransformation      Compound metabolized
5  NC(CO)(CO)CO.O=C(c1ccccc1)c1ccc2n1CCC2C(=O)O (stereo unspecified)  Bacterial Biotransformation      Compound metabolized

Endpoint output: Bacterial Biotransformation of COC(=O)[C@H]1[C@H]2C[C@@H]3c4[nH]c5cc(OC)ccc5c4CCN3C[C@H]2C[C@@H](OC(=O)c2cc(OC)c(OC)c(OC)c2)[C@@H]1OC . Value? Compound metabolized

Endpoint output: Bacterial Biotransformation of COc1ccc2c(c1OC)C(=O)O[C@@H]2[C@H]1c2c(cc3c(c2OC)OCO3)CCN1C . Value? Compound metabolized

Endpoint output: Bacterial Biotransformation of Cc1cc2c(cc1S(N)(=O)=O)S(=O)(=O)CCC2 . Value? Compound NOT metabolized

Endpoint output: Bacterial Biotransformation of O=C1CC[C@@H](C(=O)N2CSC[C@H]2C(=O)O)N1 [PIDOTIMOD] ([pGlu]-[Thz]-OH) . Value? Compound NOT metabolized

Endpoint output: Bacterial Biotransformation of O=C(Nc1ccccc1)OCC(CN1CCCCC1)OC(=O)Nc1ccccc1 (stereo unspecified) . Value? Compound NOT metabolized

Endpoint output: Bacterial Biotransformation of COCCc1ccc(OCC(O)CNC(C)C)cc1.COCCc1ccc(OCC(O)CNC(C)C)cc1.O=C(O)C(O)C(O)C(=O)O (stereo unspecified) [METOPROLOL TARTRATE] . Value? Compound metabolized

Endpoint output: Bacterial Biotransformation of CCN(CC)CCOCCOC(=O)C1(c2ccccc2)CCCC1.O=C(O)CC(O)(CC(=O)O)C(=O)O [CARBETAPENTANE CITRATE] . Value? Compound metabolized

Endpoint output: Bacterial Biotransformation of O=C(O)COCCN1CCN(C(c2ccccc2)c2ccc(Cl)cc2)CC1 (stereo unspecified) . Value? Compound metabolized

Endpoint output: Bacterial Biotransformation of CN1CCc2cccc3c2[C@H]1Cc1ccc(O)c(O)c1-3 . Value? Compound NOT metabolized

Endpoint output: Bacterial Biotransformation of CN(C)CCc1c[nH]c2ccc(Cn3cncn3)cc12.O=C(O)c1ccccc1 [RIZATRIPTAN BENZOATE] . Value? Compound NOT metabolized
